biological target: Glycogen synthase kinase-3 alpha (Homo sapiens); test: concentration-response blocking of human GSK3A – biochemical, luminescence, cell-free homogeneous, retest, dose response (AID 463203); conditions: GSK-3 alpha enzyme, ADP-Glo luminescence, 60 min
Calls of active or inactive are those of the source.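 How the source made its calls: active means more than half of replicate measurements showing over 20% loss of kinase signal relative to plate controls; inconclusive means some but at most half of replicates over 20% loss; inactive means no replicate over 20% signal loss.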
Give your call using only these classes: active, inactive

Answer briefly: the call reported for CCCCCCCNc1nc(Cl)nc(NCCO)n1 in this assay.
inactive

Further, for Cc1ccc(OCC(=O)N2CCN(c3nnc(-c4ccc(C)cc4)c4ccccc34)CC2)cc1 ?
inactive

Same question for O=C1c2cccc(O)c2C(=O)c2c(O)cc(CO)cc21 please.
inactive

Entry O=C(c1ccc2c(c1)OCO2)N1CCC2(CC1)OCCO2 please
inactive

Thanks! And C=C(C)CSc1nnc([C@@H](N)Cc2c[nH]c3ccccc23)o1 ?
inactive

Also CC(=NCCCn1ccnc1)c1c(O)n(C2CCCCC2)c(=O)[nH]c1=O , if possible.
active

Item: O=C(Cn1c(NCCO)nc2ccccc21)c1ccc([N+](=O)[O-])cc1
inactive

Another compound: CC1CCCCC12NC(=O)N(CC(=O)Nc1sccc1C(N)=O)C2=O (stereo not given)
inactive

Now consider NC1=NC(=O)/C(=C/c2cccs2)S1 and answer again.
inactive

Same for CCCOc1ccccc1NC(=O)Nc1ccccc1Cl
inactive

Do the same for CN(c1nc2nonc2nc1NC1CC1)C1CCOC1 (stereo not given) please
inactive

And for COC(=O)Nc1nnc(COc2ccccc2)s1 ?
inactive

Please answer likewise for Cc1nc2ncnn2c(C)c1Cc1c(Cl)cccc1Cl
inactive

How about Cc1nc2sc3c(c2c(=O)o1)CC(C)(C)OC3 ?
inactive

Same question for C#CCOCCOCCOCCNc1nc(N2CCOCC2)nc(N2CCN(C(=O)[C@H](CCC(=O)O)n3cc([C@@H](N)CCCCN)nn3)CC2)n1 please.
inactive

Next up: Cc1onc(-c2ccccc2)c1C(=O)NCCN1CCOCC1
inactive

// same read-out, input: O=C(c1ccc2c3n(nc2c1)-c1ccccc1CO3)N1CCCCC1
active

// same read-out, input: CCOC(=O)c1ccc(N2C=C(C(=O)OC)C(c3ccc(OC)c(O)c3)C(C(=O)OC)=C2)cc1
inactive

How about COc1cc(C(=O)NCCC(=O)NCCN2CCOCC2)cc(OC)c1OC ?
inactive

Entry to check: CN(C(=O)Oc1ccc([N+](=O)[O-])cc1)c1ccccc1
inactive

Check N/C(=N\OC(=O)c1ccco1)c1ccc(Cl)cc1 too.
inactive

Now the same for O=C1NC(=O)/C(=C\c2ccc(OCc3cccc(C(=O)O)c3)c(Cl)c2)N1
active

Next compound: CC1(C)CC(=O)C(C=NCCc2ccc(O)cc2)=C(O)C1
inactive

Note, next up: CCOC(=O)c1nnn(-c2nonc2N)c1COc1cc(C)c(Cl)c(C)c1
active

Also check Cc1ccc(C(=O)N2NC(c3ccccc3F)C3C(=O)N(c4cccc(C)c4)C(=O)C32)cc1 (stereo not given)
inactive

Can you check Cc1ccccc1C(=O)O/N=C(\N)c1cccc([N+](=O)[O-])c1 next?
inactive

Next up: Cc1c(Nc2ncccc2C(=O)O)cccc1C(F)(F)F
inactive

Next compound up: c1ccc2c(c1)Sc1ccccc1-n1cnnc1-2
inactive

Please answer likewise for O=[N+]([O-])c1cc(C(F)(F)F)ccc1NCCCN1CCOCC1
inactive

Same lookup for COc1ccccc1NC(=O)c1cc(Cl)ccc1NC(=O)c1ccco1 , please.
inactive

Similarly, O=[N+]([O-])c1cc(S(=O)(=O)c2ccc(N3CCCCC3)c([N+](=O)[O-])c2)ccc1N1CCCCC1 ?
inactive

Let us now turn to COc1cccc(/C=C2\SC(=O)NC2=O)c1OCc1ccc(C(=O)O)cc1
active

// same read-out, input: CC(=O)OCC1OC(n2ccc(=O)[nH]c2=O)C(O)C1O (stereo not given)
inactive

Record: COc1ccc(-c2cn3cccnc3n2)cc1NC(=O)C(C)C
inactive

Next compound up: Cc1cccc(NC(=O)c2sc3nc4c(c(-c5cccs5)c3c2N)CN(C)CC4)c1
inactive

Next up: O=C(Nc1cccc(C(=O)N2CCOCC2)c1)c1cccnc1
inactive

Okay, and O=[N+]([O-])c1c(NCCCO)cc(Sc2nc3ccccc3s2)c2nonc12 ?
inactive

Also check CN(C)c1ccc(/C=N/NC(=O)c2nnn(-c3nonc3N)c2CN(C)c2ccccc2)cc1
inactive

Lookup CC(=O)c1c(O)ccc2c(-c3ccccc3)cc(=O)oc12
inactive

Same question, CC(C)N=C(NC#N)SCc1ccccc1F this time
inactive

Same question for Cc1ccc(C(=O)N2NC(c3ccc(F)cc3)C3C(=O)N(c4ccc(C)c(C)c4)C(=O)C32)cc1 (stereo not given) please.
inactive

Thanks! And CCc1nnc(NC(=O)CCN2C(=O)c3ccccc3C2=O)s1 ?
inactive

COc1ccc(NC(=O)CN(C)S(=O)(=O)c2cnc[nH]2)cc1 , same question.
inactive

And then COc1cc(/C=N\NC(=O)c2ccc(-c3ccccc3)cc2)cc(Br)c1O , what is it?
inactive

What about Cc1ccccc1CNC(=O)c1cc(COc2ccc(F)cc2F)on1 ?
inactive
